Data origin: PubChem BioAssay (NCI)

Below: a set of entries, each annotated with reported TGI.
test system: KM12 colon; test: NCI tumour cell line growth inhibition, 48 h

{"molecule": "O=C(CC(O)(C(F)(F)F)C(F)(F)F)c1cccs1", "observable": "TGI", "reported.value": "> 10 µM"}
{"molecule": "Nc1ncc(-c2ccc3ncnc(N4CCc5cc(F)c(Cl)cc54)c3c2)cc1C=O", "observable": "TGI", "reported.value": "> 100 µM"}
{"molecule": "CNc1ccc(C)cc1S(=O)(=O)c1ccccc1[N+](=O)[O-]", "observable": "TGI", "reported.value": "> 100 µM"}
{"molecule": "COC1(OC)CCC2(C)OC(c3ccccc3)C1O2 (stereo not given)", "observable": "TGI", "reported.value": "> 100 µM"}
{"molecule": "[CH3][Ge]([CH3])([CH2]CC#N)[S]c1ccccc1", "observable": "TGI", "reported.value": "33.5 µM"}
{"molecule": "COc1ccc(N=Nc2c(-c3ccccc3)nn(C(=O)CC(=O)Nc3ccc(OC)cc3)c2-c2ccccc2)cc1", "observable": "TGI", "reported.value": "> 100 µM"}
{"molecule": "CCc1cccc(C(C)C)c1NC(=O)C(=O)Nn1c(=S)[nH]c2ccccc2c1=O", "observable": "TGI", "reported.value": "> 100 µM"}
{"molecule": "C=C(Cl)[C@](Cl)(CBr)CC[C@@H](Br)C(C)(C)Cl", "observable": "TGI", "reported.value": "2.26 µM"}
{"molecule": "COc1ccc(/C=N/NS(=O)(=O)c2ccc(/C=C3\\NC(=O)NC3=O)cc2)cc1", "observable": "TGI", "reported.value": "> 100 µM"}

Prompt: Find TGI (KM12 colon) for the entry `C[n+]1c(-c2ccc(/C=N\Nc3ccnc(N/N=C/c4ccc(-c5cn6ccsc6[n+]5C)cc4)n3)cc2)cn2ccsc21`
Response: 84.5 µM

---

Below: a set of entries, each annotated with reported TGI.
test system: SR leukemia; assay: NCI tumour cell line growth inhibition, 48 h

// below: answered compounds
{"compound": "O=C(O)CCC1C(=O)C2CCN1CC2 (stereo not given)", "reported.value": "> 100 µM"}
{"compound": "COc1ccc(NC(=O)CSc2nc(C)nc3c2sc(=S)n3-c2ccccc2)cc1", "reported.value": "> 10 µM"}
{"compound": "CCNCCS(=O)(=O)NC[C@@]1(c2ccccc2)SC(NC(=O)C(C)(C)C)=NN1C(=O)C(C)(C)C", "reported.value": "22.3 µM"}
{"compound": "COc1ccc(NCc2cccc3c(=O)c4ccc(Cl)cc4oc23)cc1", "reported.value": "> 100 µM"}

Prompt: # lookup: TGI of `COC(=O)c1cc(C#N)[nH]c1-c1ccc(Br)s1`
Response: > 51.9 µM

---

tested on: MDA-MB-435; assay: NCI tumour cell line growth inhibition, 48 h
observable: TGI (µM)
# output: bare number, implied unit µM

// below: answered compounds
{"compound": "CC1(C)COC(c2cccc(C(O)c3ccc(Cl)cc3)c2)=N1 (stereo unspecified)", "assay.target": "MDA-MB-435", "units": "µM", "TGI": 67.3}
{"compound": "NC(N)=N/N=C/c1c(-c2ccc([N+](=O)[O-])cc2)nc2sc(Cl)cn12", "assay.target": "MDA-MB-435", "units": "µM", "TGI": 2.33}
{"compound": "C/C=C(/C)C(=O)OC1C=C(CO)C(=O)C(OC(=O)C2(C)OC2C)C1C(C)C (stereo unspecified)", "assay.target": "MDA-MB-435", "units": "µM", "TGI": 2.88}
{"compound": "O=C1NC(c2cccc3ccccc23)Nc2ccc(Cl)cc21 (stereo unspecified)", "assay.target": "MDA-MB-435", "units": "µM", "TGI": 0.000257}
{"compound": "Cc1c(Br)c(Br)c2c3c1nc(N1CCNCC1)n3CCC2", "assay.target": "MDA-MB-435", "units": "µM", "TGI": 3.22}

We now examine a further compound.
Prompt: # lookup: TGI of CC1CCC2C(C)C(OC(=O)CCC(=O)O)OC3OC4(C)CCC1C32OO4 (stereo unspecified)
Response: 13.6
